B1: WW domain-containing transcription regulator protein 1, residues 116 to 162; numbered along this chain, Q9GZV5 (parent)
chain: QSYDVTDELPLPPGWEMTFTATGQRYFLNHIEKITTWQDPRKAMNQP

variants of: B1; experiment: abundance fitness (aPCA) (normalised: wild type 0, dead -1); higher = more abundant; growth selection in yeast, the domain comes from the species named; conditions: Homo sapiens
Outcome label depends on abundance fitness relative to -0.4: at/above gives Criterion met, below gives Criterion not met.

Q: Exam item: decide whether the reported abundance fitness for D4W is at least -0.4.
Result: Criterion met

Q: Now this one: K42P
Result: Criterion met

Q: How about this variant: G23R
Result: Criterion met

Q: Moving on to Q1T
Result: Criterion not met

Q: Record: R41D
Result: Criterion not met

Q: Same read-out for A43I ?
Result: Criterion met

Q: Could you do the same for E32I , please?
Result: Criterion met

Q: What do you have for I31V ?
Result: Criterion met

Q: Try the variant F19S
Result: Criterion met

Q: Moving on to the next variant: I31T
Result: Criterion met

Q: Request: M17C
Result: Criterion met

Q: Same again, this time with L9S
Result: Criterion met

Q: // query: T35Y
Result: Criterion not met

Q: What do you have for I34N ?
Result: Criterion met

Q: Subsequent entry: G14K
Result: Criterion not met

Q: Try this variant too: T36R
Result: Criterion not met

Q: Now consider F19V .
Result: Criterion met

Q: Quick one: T36Y
Result: Criterion not met

Q: And for H30M ?
Result: Criterion met

Q: Similarly, M17V ?
Result: Criterion met

Q: Same again, this time with G14Q
Result: Criterion not met

Q: # repeat for M44D
Result: Criterion met

// provenance: the Human Domainome abundance scans (Beltran et al. 2025)
